Test system: SCC-9
Test: Cell panel nuclear dye assay
Type: cell-based
Settings: Homo sapiens, 120 h, Head & neck (squamous cell carcinoma, tongue), 5-day incubation
Quantity Measured: EC50

Measured EC50 (SCC-9), entry NC(=O)c1ncn2c(=O)n(CCOC(F)(F)F)nnc12 [Compound I-1] : 70 to 150 µM

----------
System: A427
Assay: Cell panel nuclear dye assay
Format: cell-based
Details: Homo sapiens, A-427, 120 h, Lung (NSCLC), 5-day incubation
pIC50: −log10 of the molar value.
Quantity Measured: pIC50

# pIC50 of NC(=O)c1ncn2c(=O)n(CCOC(F)(F)F)nnc12 = 4.15 to 4.52

----------
Tested on: 639-V
Assay: Cell panel nuclear dye assay
Format: cell-based
Conditions: Homo sapiens, 120 h, Bladder (ureter), 5-day incubation
Quantity Measured: EC50

Record NC(=O)c1ncn2c(=O)n(CCOC(F)(F)F)nnc12 , field EC50: ≤ 30 µM

----------
Test system: ST486
Test: Cell panel nuclear dye assay
Assay type: cell-based
Conditions: Homo sapiens, 120 h, Lymphoma (Burkitt's), 5-day incubation
pEC50: −log10 of the molar value.
Quantity Measured: pEC50

get_value(item= NC(=O)c1ncn2c(=O)n(CCOC(F)(F)F)nnc12 [Compound I-1] , readout=pEC50) returns ≥ 4.52

----------
Test system: SJRH30
Assay: Cell panel nuclear dye assay
Format: cell-based
Details: Homo sapiens, 120 h, Sarcoma (rhabdomyosarcoma), 5-day incubation
pIC50: −log10 of the molar value.
Quantity Measured: pIC50

Tested on SJRH30: NC(=O)c1ncn2c(=O)n(CCOC(F)(F)F)nnc12 . Observed pIC50: ≥ 4.52

----------
Tested on: M059J
Test: Cell panel nuclear dye assay
Assay type: cell-based
Settings: Homo sapiens, 120 h, Glioma (glioblastoma), 5-day incubation
Procedure: Cells were grown in RPMI1640, 10% FBS, 2 mM L-alanyl-L-glutamine, 1 mM Na pyruvate, or a special medium. Cells were seeded into 384-well plates and incubated in a humidified atmosphere of 5% CO2 at 37° C. Compound was added the day following cell seeding. […] After a 5-day incubation period, cells were fixed and stained to allow fluorescence imaging of nuclei. […] Cell proliferation was measured by the fluorescence intensity of an incorporated nuclear dye. […]
Quantity Measured: IC50

Entry NC(=O)c1ncn2c(=O)n(CCOC(F)(F)F)nnc12 ; IC50 = 30 to 70 µM

----------
System: SW48
Assay: Cell panel nuclear dye assay
Assay type: cell-based
Conditions: Homo sapiens, 120 h, Colon, 5-day incubation
Quantity Measured: EC50

Entry NC(=O)c1ncn2c(=O)n(CCOC(F)(F)F)nnc12 , tested on SW48, has a reported EC50 of ≤ 30 µM

----------
Test system: SK-LMS-1
Assay: Cell panel nuclear dye assay
Type: cell-based
Settings: Homo sapiens, 120 h, Sarcoma (leiomyosarcoma), 5-day incubation
Quantity Measured: IC50

Item: NC(=O)c1ncn2c(=O)n(CCOC(F)(F)F)nnc12 | IC50: 30 to 70 µM

----------
System: DB
Experiment: Cell panel nuclear dye assay
Type: cell-based
Settings: Homo sapiens, 120 h, Lymphoma (B-cell), 5-day incubation
Quantity Measured: IC50

IC50 recorded for this compound, NC(=O)c1ncn2c(=O)n(CCOC(F)(F)F)nnc12 , is 30 to 70 µM

----------
Test system: Hs 294T
Assay: Cell panel nuclear dye assay
Format: cell-based
Conditions: Homo sapiens, 120 h, Melanoma, 5-day incubation
Quantity Measured: IC50

The compound listed as NC(=O)c1ncn2c(=O)n(CCOC(F)(F)F)nnc12 [Compound I-1] shows IC50 equal to ≤ 30 µM

----------
Tested on: SK-N-AS
Assay: Cell panel nuclear dye assay
Assay type: cell-based
Settings: Homo sapiens, 120 h, Neuroblastoma, 5-day incubation
pEC50: −log10 of the molar value.
Quantity Measured: pEC50

Bench note, SK-N-AS: NC(=O)c1ncn2c(=O)n(CCOC(F)(F)F)nnc12 , pEC50 reads < 3.82

----------
Test system: WM-266-4
Experiment: Cell panel nuclear dye assay
Assay type: cell-based
Settings: Homo sapiens, 120 h, Melanoma, 5-day incubation
Quantity Measured: EC50

The measured EC50 associated with NC(=O)c1ncn2c(=O)n(CCOC(F)(F)F)nnc12 reads 30 to 70 µM

----------
Tested on: SHP-77
Test: Cell panel nuclear dye assay
Type: cell-based
Details: Homo sapiens, SHP77, 120 h, Lung (SCLC), 5-day incubation
pEC50: −log10 of the molar value.
Quantity Measured: pEC50

Kindly note the recorded pEC50 for NC(=O)c1ncn2c(=O)n(CCOC(F)(F)F)nnc12 , which is 4.15 to 4.52

----------
Test system: CRO-AP2
Test: Cell panel nuclear dye assay
Type: cell-based
Conditions: Homo sapiens, 120 h, Lymphoma, 5-day incubation
Quantity Measured: EC50

Entry NC(=O)c1ncn2c(=O)n(CCOC(F)(F)F)nnc12 , EC50 reported as ≤ 30 µM

----------
Test system: SK-LMS-1
Test: Cell panel nuclear dye assay
Assay type: cell-based
Settings: Homo sapiens, 120 h, Sarcoma (leiomyosarcoma), 5-day incubation
pEC50: −log10 of the molar value.
Quantity Measured: pEC50

Kindly note the recorded pEC50 for NC(=O)c1ncn2c(=O)n(CCOC(F)(F)F)nnc12 , which is 4.15 to 4.52

----------
Consider the following compounds; for each one, report its IC50.
Test system: LN229 gliobastoma cells MGMT−/MMR+
Test: Anti-cancer assay, isogenic LN229 cells, nuclei count (Examples 43, 46)
Format: cell-based
Conditions: Homo sapiens, LN-229, 120 h, read-out: MGMT− MMR+ Activity

                                   compound        result
0    O=NN(CCOC(F)(F)F)C(=O)NC1CCCCC1 [IV-1]   20 to 50 µM
1  O=C(Nc1ccccc1)c1ncn2c(=O)n(CCOC(F)(F)F)nnc12 [Compound I-9]   20 to 50 µM
2  O=NN(CCOC(F)(F)F)C(=O)NCCOC(F)(F)F [IV-2]  50 to 100 µM

I'm hoping you can list IC50 for every compound here, please.
1. CCNC(=O)c1ncn2c(=O)n(CCOC(F)(F)F)nnc12 [Compound I-3]
2. CN(C)CCN(C)C(=O)c1ncn2c(=O)n(CCOC(F)(F)F)nnc12 [Compound I-11]
3. CCOC(=O)c1ncn2c(=O)n(CCOC(F)(F)F)nnc12 [Compound I-30]

Resp:
1. 50 to 100 µM
2. < 20 µM
3. > 100 µM

----------
Test system: DBTRG-05MG
Assay: Cell panel nuclear dye assay
Type: cell-based
Details: Homo sapiens, 120 h, Glioma (glioblastoma multiforme), 5-day incubation
pEC50: −log10 of the molar value.
Quantity Measured: pEC50

Entry NC(=O)c1ncn2c(=O)n(CCOC(F)(F)F)nnc12 ; pEC50 = ≥ 4.52

----------
System: 647-V
Assay: Cell panel nuclear dye assay
Format: cell-based
Conditions: Homo sapiens, 120 h, Bladder, 5-day incubation
pIC50: −log10 of the molar value.
Quantity Measured: pIC50

NC(=O)c1ncn2c(=O)n(CCOC(F)(F)F)nnc12 [Compound I-1] has a reported pIC50 of 4.15 to 4.52

Numbers sourced from patent US20250066371A1.
